assay_remarks: In vivo pharmacokinetics, plasma and brain concentrations
Parameters: species or system C57BL/6 mice
stated_conditions: C57BL/6, mouse, intravenous; 3 mg/kg single dose, homogenized brain, 24 h; read-out: brain concentration after 24 h (FIG. 2)
Counter-ions that a name gives are not always drawn.

{"columns": ["compound", "concentration at 24 h (ng/g)"],
 "data": [
  ["CC(=O)N[C@H]1CN2/C(=N/Cc3ccccc3)SC[C@@H]2[C@@H](O)[C@@H]1O [Compound 4, Hydrochloride]", 7.5]
]}

====

test_system: Recombinant Human Hexosaminidase A (HexA) (Homo sapiens)
Sequence (P06865 89-529): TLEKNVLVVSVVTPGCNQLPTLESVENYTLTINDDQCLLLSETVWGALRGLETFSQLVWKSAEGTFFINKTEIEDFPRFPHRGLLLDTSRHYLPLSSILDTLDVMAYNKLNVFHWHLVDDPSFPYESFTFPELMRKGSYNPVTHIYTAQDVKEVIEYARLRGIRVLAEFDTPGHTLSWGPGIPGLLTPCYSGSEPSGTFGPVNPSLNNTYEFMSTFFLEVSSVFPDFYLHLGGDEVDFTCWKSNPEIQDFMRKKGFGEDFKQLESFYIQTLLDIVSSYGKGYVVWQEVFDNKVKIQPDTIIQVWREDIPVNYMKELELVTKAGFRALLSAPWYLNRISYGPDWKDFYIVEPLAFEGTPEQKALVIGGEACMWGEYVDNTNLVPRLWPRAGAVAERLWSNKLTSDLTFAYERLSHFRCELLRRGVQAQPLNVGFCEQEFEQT
assay_remarks: Inhibition assay against rhHexA, 4-methylumbelliferone-N-acetyl-β-D-glucosaminide fluorescence
stated_conditions: IC50 for lysosomal hHexA; NI = no inhibition detected at 200 μM
pIC50: −log10 of the molar value. Counter-ions that a name gives are not always drawn.
# key: entry, value: pIC50

{"columns": ["compound", "pIC50"],
 "data": [
  ["CC(C)C(=O)N[C@H]1CN2/C(=N/Cc3ccccc3)SC[C@@H]2[C@@H](O)[C@@H]1O [Compound 16, Hydrochloride]", "< 3.70"],
  ["CC(=O)N[C@H]1CN2/C(=N/Cc3ccccc3)SC[C@@H]2[C@@H](O)[C@@H]1O [Compound 4, Hydrochloride]", 6.25],
  ["CCC(=O)N[C@H]1CN2/C(=N/Cc3ccccc3)SC[C@@H]2[C@@H](O)[C@@H]1O [Compound 13, Hydrochloride]", "< 3.70"],
  ["CCC(=O)N[C@H]1CN2/C(=N/Cc3ccc4[nH]ccc4c3)SC[C@@H]2[C@@H](O)[C@@H]1O [Compound 15, hydrochloride]", "< 3.70"],
  ["CCCCCCCCN=C1SCC2C(O)C(O)C(NC(C)=O)CN12 (centres unmarked) [Compound 2, Hydrochloride]", 6.24],
  ["CCNC(=S)N[C@H]1CN2/C(=N/Cc3ccccc3)SC[C@@H]2[C@@H](O)[C@@H]1O [Compound 18]", "< 3.70"],
  ["CCC(=O)N[C@H]1CN2/C(=N/Cc3cccc4ccccc34)SC[C@@H]2[C@@H](O)[C@@H]1O [Compound 14, hydrochloride]", "< 3.70"],
  ["CCCCN=C1SCC2C(O)C(O)C(NC(C)=O)CN12 (centres unmarked) [Compound 1, Hydrochloride]", 6.00],
  ["CCCC(=O)N[C@H]1CN2/C(=N/Cc3ccccc3)SC[C@@H]2[C@@H](O)[C@@H]1O [Compound 17]", "< 3.70"],
  ["CC(=O)N[C@H]1CN2/C(=N/c3ccccc3)SC[C@@H]2[C@@H](O)[C@@H]1O [Compound 3, Hydrochloride]", 6.39],
  ["CCCNC(=S)N[C@H]1CN2/C(=N/Cc3ccccc3)SC[C@@H]2[C@@H](O)[C@@H]1O [Compound 19]", "< 3.70"]
]}

====

test_system: β-N-acetylglucosaminidase (from human placenta)
assay_remarks: Inhibition assay against commercial β-N-acetylglucosaminidase (human placenta), p-nitrophenyl N-acetyl-β-D-glucosaminide substrate
stated_conditions: pH 5.5, 37° C.; average of three determinations ± s.e.m.; read-out: Human placenta Hex
Protocol: Inhibition Assays Against Commercial β-N-acetylglucosaminidases Inhibition constant (Ki) values were determined by spectrophotometrically measuring the residual hydrolytic activities of the glycosidases against p-nitrophenyl N-acetyl-β-D-glucosaminide. […] The absorbance of the resulting mixture was determined at 405 nm. Approximate values of Ki were determined using a fixed concentration of substrate (around the Km value for the different glycosidases) and various inhibitor concentrations. […]
Where a name gives a salt, the structure may show the parent alone.
Returns: string. Value is true if measured Ki is below 400 nM, and false if it is greater than or equal to it.

{"columns": ["molecule", "label_value"],
 "data": [
  ["CCCCN=C1SCC2C(O)C(O)C(NC(C)=O)CN12 (stereo not shown) [Compound 1, Hydrochloride]", "true"],
  ["CCCCCCCCN=C1SCC2C(O)C(O)C(NC(C)=O)CN12 (stereo not shown) [Compound 2, Hydrochloride]", "true"],
  ["CC(=O)N[C@H]1CN2/C(=N/Cc3ccc(F)cc3)SC[C@@H]2[C@@H](O)[C@@H]1O [Compound 6, Hydrochloride]", "true"],
  ["CC(=O)N[C@H]1CN2/C(=N/Cc3ccccc3)SC[C@@H]2[C@@H](O)[C@@H]1O [Compound 4, Hydrochloride]", "false"],
  ["CC(=O)N[C@H]1CN2/C(=N/c3ccccc3)SC[C@@H]2[C@@H](O)[C@@H]1O [Compound 3, Hydrochloride]", "false"],
  ["COc1ccc(C/N=C2\\SC[C@@H]3[C@@H](O)[C@H](O)[C@@H](NC(C)=O)CN23)cc1 [Compound 7, Hydrochloride]", "false"]
]}
